Molecular target: biotin carboxylase (BC) (Escherichia coli, UniProt P24182)
Construct: His tag (N); made in house
Experiment: Biotin carboxylase inhibition assay, ATP or biotin varied (pyruvate kinase/lactic dehydrogenase coupled)
Format: biochemical
Conditions: ATP varied 0.05-1.0 mM; biotin constant 40 mM (subsaturating); SABA1 0, 75, 150 µM; read-out: Kis, competitive inhibition versus ATP
property-label: pKi
Units for pKi: none; it is -log10 of a concentration expressed in mol/L.

For CCOC(=O)c1ccc(NS(=O)(=O)c2cc(C(=O)Nc3ccccc3)ccc2Cl)cc1 [SABA1] the compound record lists pKi as 3.62

====

Biological target: Acetyl-CoA carboxylase (ACC) (Escherichia coli)
Construct: His tag (N); made in house
Experiment: ACC assay, ATP varied (BC:BCCP:CT 1:2:1)
Type: biochemical
Settings: ATP varied 1.0-16 µM; acetyl-CoA 0.20 mM; SABA1 0, 50, 100 µM; read-out: Kii, non-competitive inhibition versus ATP
property-label: Ki (µM)
Reply with just the number (in µM).

Lookup result for `CCOC(=O)c1ccc(NS(=O)(=O)c2cc(C(=O)Nc3ccccc3)ccc2Cl)cc1` ; measured Ki: 23.3
